These measurements were taken from patent US9340577B2.

studyTarget: DRB1*1201 (Homo sapiens, UniProt P01903+P01911, A100R/A169T/D57E/D86V/F55L/H45Y/K41T/L162R/M171V/P40S/Q125H/Q178H/Q39Y/Q99D/R42G/S66L/T262R/V114A/V67L/W38E/Y59H/Y61H/Y89S)
assaySummary: biochemical
Format: binding
No end group written: not given here.
experimentalReadout: pIC50
The read-out pIC50 is expressed as -log10 of concentration in moles per litre.

Worked set:
{"chain": "CQAIELQLALEALNK [Peptide 90.0014]", "pIC50": 5.96}
{"chain": "VSFLSALKLFLKGVP [Peptide 89.0053]", "pIC50": 7.09}
{"chain": "KVAMLDDATHTCWTY [Peptide 90.0105]", "pIC50": 5.03}
{"chain": "CMLIQPPKLRSTAAA [Peptide 89.0047]", "pIC50": 5.43}

// pIC50 lookup, sequence = VTAIFGVNPTIAEGF [Peptide 89.0023] , result: 5.18

// pIC50 lookup, sequence = GKSLFGMSLMKFLQG [Peptide 89.0019] , result: 7.10

// pIC50 lookup, sequence = NGWFYVEAVIDRQTG [Peptide 90.0062] , result: 5.39

// pIC50 lookup, sequence = QMFLGTVKIPPTVQI [Peptide 89.0188] , result: 6.26
